Listing of recorded normalized growth by entry.
experiment: chemical genetic growth profiling, strain panel (AID 1159580);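 note: tested at 20 µM; growth read once vehicle control cultures reached saturation at 30 °C; 1 = growth at the plate median or of vehicle wells; lower values mean less growth of the strain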; conditions: S. cerevisiae deletion strains, growth OD, locus YPR141C, strain kar3, active compounds read low
Among all 5,500 compounds or so, about 2,000 (36%) were called active. Not shown: some 18% with an inconclusive outcome. This is one part of the list.

Examples from the recorded data:
MOLECULE	MEASURED ENDPOINT	RESULT
CCCCC(=O)O[C@H]1CCC2C3CCc4cc(O)ccc4C3CC[C@@]21C (some centres undefined)	normalized growth	0.997 (inactive)
C[C@]12CCC3c4ccc(O)cc4CCC3C1CC[C@@H]2OC(=O)CCC1CCCC1 (some centres undefined)	normalized growth	0.996 (inactive)
CSCCC(NC=O)C(=O)NC(CC(C)C)C(=O)NC(Cc1ccccc1)C(=O)O (centres undefined)	normalized growth	0.985 (inactive)
COc1ccc(Cc2nccc3cc(OC)c(OC)cc23)cc1OC	normalized growth	0.988 (inactive)
c1ccc2c(c1)[nH]c1cnccc12	normalized growth	0.984 (inactive)
Nc1ncnc2nc[nH]c12	normalized growth	1.02 (inactive)
COc1ccc2c(c1)[nH]c1c(C)nccc12	normalized growth	0.979 (inactive)
CCN(CC)CCNC(=O)COc1ccc(OC)cc1	normalized growth	0.992 (inactive)

*Q* Fill blank: measured normalized growth of the molecule COc1cc2c(cc1-c1coc3c4c(c(OC)cc3c1=O)OC(C)(C)C=C4)OCO2 is ____.
*A* 0.999 (inactive)

*Q* Another molecule to check: COc1cc(O)c(C(C)=O)c(OC)c1
*A* 0.993 (inactive)

*Q* Another molecule to check: CCCc1nc(C(C)(C)O)c(C(=O)OCc2oc(=O)oc2C)n1Cc1ccc(-c2ccccc2-c2nn[nH]n2)cc1
*A* 0.99 (inactive)

*Q* Another molecule to check: Cn1cnc([N+](=O)[O-])c1Sc1ncnc2nc[nH]c12
*A* 0.99 (inactive)

*Q* Another molecule to check: O=C1c2ccc(O)c(O)c2C(=O)c2c(O)ccc(O)c21
*A* 0.991 (inactive)

*Q* Another molecule to check: Cc1ncc([N+](=O)[O-])n1CCO
*A* 0.982 (inactive)

*Q* Another molecule to check: c1coc(CNc2ncnc3nc[nH]c23)c1
*A* 0.981 (inactive)

*Q* Another molecule to check: COc1c(O)cc(O)cc1O
*A* 0.971 (inactive)

*Q* Another molecule to check: O=c1[nH]cnc2nc[nH]c12
*A* 0.977 (inactive)

###

assay: chemical genetic growth profiling, strain panel (AID 1159580);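 note: tested at 20 µM; growth read once vehicle control cultures reached saturation at 30 °C; 1 = growth at the plate median or of vehicle wells; lower values mean less growth of the strain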; conditions: S. cerevisiae deletion strains, growth OD, locus YMR307W, strain GAS1, active compounds read low
The whole screen tested about 5,500 compounds, of which about 2,000 (36%) were called active. Inconclusive results (about 18%) are left out. This is one part of the list.
Quick rule for you: normalized growth under 1 gets Criterion met, anything else gets Criterion not met.

Some solved cases for reference:
COMPOUND	CLASS
COc1c(O)cc(O)cc1O	Criterion not met
CCOc1nc2cccc(C(=O)OC(C)OC(=O)OC3CCCCC3)c2n1Cc1ccc(-c2ccccc2-c2nn[nH]n2)cc1 (stereo not drawn)	Criterion met
CC(N)=NCc1cccc(CN)c1	Criterion not met
FC(F)(F)c1ccc(-n2cncn2)nc1	Criterion not met

# next compound below
*Q* is_below(normalized growth, 1) for CC(=O)N[C@@H](CC(=O)O)C(=O)O ?
*A* Criterion not met
